Taken from patent US9562035B2.

tested-target: hFASN enzyme (full length) (Homo sapiens, UniProt P49327)
Construct: 10 μL hFASN enzyme (full length, 300 ng, purified in house); made in house
Sequence (P49327 whole entry): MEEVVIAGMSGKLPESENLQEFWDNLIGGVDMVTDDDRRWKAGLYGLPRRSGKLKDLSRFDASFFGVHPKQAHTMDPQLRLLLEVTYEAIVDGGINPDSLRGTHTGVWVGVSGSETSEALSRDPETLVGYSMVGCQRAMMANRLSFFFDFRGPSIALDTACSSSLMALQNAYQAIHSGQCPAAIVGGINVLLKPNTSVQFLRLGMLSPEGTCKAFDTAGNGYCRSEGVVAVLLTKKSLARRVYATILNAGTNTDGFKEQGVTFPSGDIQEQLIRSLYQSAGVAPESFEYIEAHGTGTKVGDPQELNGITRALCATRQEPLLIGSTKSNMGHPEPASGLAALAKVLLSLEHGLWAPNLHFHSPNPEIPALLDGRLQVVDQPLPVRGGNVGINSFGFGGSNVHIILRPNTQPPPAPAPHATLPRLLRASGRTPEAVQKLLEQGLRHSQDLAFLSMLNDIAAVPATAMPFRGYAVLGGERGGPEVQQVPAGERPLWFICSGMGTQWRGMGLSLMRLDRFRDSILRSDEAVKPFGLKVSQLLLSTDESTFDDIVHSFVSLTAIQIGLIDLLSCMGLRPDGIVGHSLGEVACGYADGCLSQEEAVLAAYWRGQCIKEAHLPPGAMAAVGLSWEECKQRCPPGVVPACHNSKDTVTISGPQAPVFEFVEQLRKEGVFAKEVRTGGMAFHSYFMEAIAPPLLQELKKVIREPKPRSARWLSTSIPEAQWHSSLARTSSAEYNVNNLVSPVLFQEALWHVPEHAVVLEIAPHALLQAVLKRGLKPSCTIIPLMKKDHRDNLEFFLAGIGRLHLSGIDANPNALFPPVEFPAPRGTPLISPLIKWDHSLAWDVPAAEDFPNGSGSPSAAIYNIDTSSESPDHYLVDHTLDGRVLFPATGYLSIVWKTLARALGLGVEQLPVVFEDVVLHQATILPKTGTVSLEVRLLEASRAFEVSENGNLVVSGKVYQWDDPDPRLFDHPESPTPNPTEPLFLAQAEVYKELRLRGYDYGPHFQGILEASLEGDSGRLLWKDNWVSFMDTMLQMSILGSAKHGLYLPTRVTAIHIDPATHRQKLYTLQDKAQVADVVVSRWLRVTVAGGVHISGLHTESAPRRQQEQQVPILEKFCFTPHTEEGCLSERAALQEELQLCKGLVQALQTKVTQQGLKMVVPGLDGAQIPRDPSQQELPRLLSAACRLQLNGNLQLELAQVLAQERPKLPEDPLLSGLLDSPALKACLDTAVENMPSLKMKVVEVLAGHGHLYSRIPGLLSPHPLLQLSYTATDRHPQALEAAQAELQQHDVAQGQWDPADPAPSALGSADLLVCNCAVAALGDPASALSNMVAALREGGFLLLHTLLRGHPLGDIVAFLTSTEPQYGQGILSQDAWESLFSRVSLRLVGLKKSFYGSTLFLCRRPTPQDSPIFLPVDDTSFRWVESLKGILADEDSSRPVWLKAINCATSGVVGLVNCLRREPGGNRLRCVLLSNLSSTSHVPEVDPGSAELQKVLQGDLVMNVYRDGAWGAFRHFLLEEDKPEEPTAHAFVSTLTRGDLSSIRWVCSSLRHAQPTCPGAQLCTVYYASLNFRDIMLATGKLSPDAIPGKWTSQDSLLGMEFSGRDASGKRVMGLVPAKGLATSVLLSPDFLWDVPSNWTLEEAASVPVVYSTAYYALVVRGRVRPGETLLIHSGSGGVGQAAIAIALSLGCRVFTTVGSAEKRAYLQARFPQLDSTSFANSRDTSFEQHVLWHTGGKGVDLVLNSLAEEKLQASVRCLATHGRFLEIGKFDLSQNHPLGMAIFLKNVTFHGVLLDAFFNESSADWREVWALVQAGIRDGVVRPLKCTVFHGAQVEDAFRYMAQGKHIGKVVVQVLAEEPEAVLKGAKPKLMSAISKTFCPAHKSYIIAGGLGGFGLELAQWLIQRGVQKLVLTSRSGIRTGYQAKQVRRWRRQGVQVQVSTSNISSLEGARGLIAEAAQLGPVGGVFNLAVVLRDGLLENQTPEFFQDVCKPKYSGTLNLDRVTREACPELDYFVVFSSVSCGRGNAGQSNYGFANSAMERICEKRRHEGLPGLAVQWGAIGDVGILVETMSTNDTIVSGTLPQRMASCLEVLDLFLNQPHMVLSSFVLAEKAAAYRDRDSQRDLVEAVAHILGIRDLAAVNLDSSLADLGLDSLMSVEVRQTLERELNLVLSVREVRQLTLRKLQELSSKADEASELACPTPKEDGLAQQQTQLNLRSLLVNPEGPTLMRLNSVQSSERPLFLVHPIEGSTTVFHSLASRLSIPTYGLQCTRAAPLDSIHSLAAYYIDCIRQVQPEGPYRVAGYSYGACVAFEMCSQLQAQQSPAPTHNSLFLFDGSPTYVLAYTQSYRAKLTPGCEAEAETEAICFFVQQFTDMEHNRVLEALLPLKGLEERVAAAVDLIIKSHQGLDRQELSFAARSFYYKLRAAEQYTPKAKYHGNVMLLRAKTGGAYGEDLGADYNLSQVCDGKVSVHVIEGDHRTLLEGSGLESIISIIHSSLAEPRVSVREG
experiment-summary: Fatty Acid Synthase (FASN) Inhibition Scintillation Proximity Assay
Type: biochemical
experimental-conditions: read-out: FASN % Effect @1E−05M
measurement-name: inhibition at 10 µM (%)

1. CC(C)Nc1ccc(C(=O)Nc2cc(C(=O)N3CC[C@H](c4ccc(-c5ccnn5C)cc4)[C@@H](O)C3)ccc2Cl)cn1 (racemic) [Compound #77]
2. Cc1ccc(-c2ccc(C3CCN(C(=O)c4ccc(C)c(NC(=O)c5ccc(NC(C)C)nc5)c4)CC3)cc2)cc1 [Compound 234]
Which has the higher inhibition at 10 µM, 1 or 2 ? Please indicate the selected item by its label.
1

* * *

tested-target: hFASN enzyme (full length) (Homo sapiens, UniProt P49327)
Construct: 10 μL hFASN enzyme (full length, 300 ng, purified in house); made in house
experiment-summary: Fatty Acid Synthase (FASN) Inhibition Scintillation Proximity Assay
Assay type: biochemical
experimental-conditions: read-out: FASN % Effect @1E−05M
measurement-name: inhibition at 10 µM (%)

{"columns": ["compound", "readout-unit", "inhibition at 10 µM"],
 "data": [
  ["Cc1ccc(C(=O)N2CC(c3ccc(-c4ccnc5ccccc45)cc3)C2)cc1NC(=O)c1ccc(NC(C)C)nc1", "%", 111],
  ["Cc1ccc(C(=O)N2CC(c3ccc(-c4ccnn4C)cc3)C2)cc1NC(=O)c1ccc(N2CCCCC2)nc1", "%", 106],
  ["Cc1ccc(C(=O)N2CC[C@H](c3ccc(-c4ccnn4C)cc3)[C@@H](C)C2)cc1NC(=O)c1ccc(Cl)nc1 (racemic)", "%", 115],
  ["Cc1ccc(C(=O)N2CC(c3ccc(-c4cnn(C)c4)cc3)C2)cc1NC(=O)c1ccc(NC2CCC2)nc1", "%", 119]
]}

* * *

System: A2780 ovarian cells
experiment-summary: A2780 Ovarian Cell Proliferation Assay in Lipid Reduced Medium, without Palmitate
Type: cell-based
experimental-conditions: Homo sapiens, A2780; lipid reduced medium, without palmitate, 96 h, MTT; read-out: Proliferation A2780 w/o Palmitate pIC50 (converted)
measurement-name: IC50 (nM)

Examples with their reported IC50 follow.
{"columns": ["compound", "tested-target", "IC50, nM"],
 "data": [
  ["COc1ccc(C(=O)Nc2cc(C(=O)N3CCC(c4ccc(-c5cnn(C)c5)cc4)CC3)ccc2C)cn1", "A2780 ovarian cells", 67.6],
  ["CC(C)Nc1ccc(C(=O)Nc2cc(C(=O)N3CC(c4ccc(-c5ccnc6ccccc56)cc4)C3)ccc2Cl)cn1", "A2780 ovarian cells", 53.7],
  ["Cc1ccc(C(=O)N2CCC(c3ccc(-c4cnn(C)c4)cc3)CC2)cc1NC(=O)C1CCCO1 (centres unmarked)", "A2780 ovarian cells", 1170]
]}

I. CCN1CC(C(=O)Nc2cc(C(=O)N3CCC(c4ccc(-c5cnn(C)c5)cc4)CC3)ccc2C)C1
II. Cc1ccc(C(=O)N2CC(c3ccc(-c4cnn(C)c4)cc3)C2)cc1NC(=O)c1ccc(N2CCCC2)nc1
Which has the higher IC50, I or II ? Please indicate the selected item by its label.
I

* * *

tested-target: hFASN enzyme (full length) (Homo sapiens, UniProt P49327)
Construct: 10 μL hFASN enzyme (full length, 300 ng, purified in house); made in house
experiment-summary: Fatty Acid Synthase (FASN) Inhibition Scintillation Proximity Assay
Type: biochemical
experimental-conditions: read-out: FASN % Effect @1E−05M
Method: In this assay, inhibition of FASN activity is measured using ^3H-acetyl-CoA and malonyl-CoA as substrates. ^3H-Acetyl CoA is converted to ^3H-palmitate through a series of reactions by the FASN protein, which contains 7 functional domains and carries out 7 enzymatic reactions to ultimately produce ^3H-palmitate. […] Raw data generated by the instrument were normalized to % Controlmin values, which were calculated as: % Controlmin=100*(x−mLC)/(mHC−mLC) […]
measurement-name: inhibition at 10 µM (%)

Examples with their reported inhibition at 10 µM follow.
{"columns": ["compound", "inhibition at 10 µM [%]"],
 "data": [
  ["Cc1ccc(C(=O)N2CCC(c3ccc(-c4cnn(C)c4)cc3)CC2)cc1NC(=O)C1CCNC1 (stereo not shown)", 112],
  ["Cc1ccc(C(=O)N2CCC(c3ccc(-c4cnn(CC5CCC5)c4)cc3)CC2)cc1NC(=O)c1ccc(NC(C)C)nc1", 109],
  ["CCC(=O)NC1CC[C@@H](C(=O)Nc2cc(C(=O)N3CC(c4ccc(-c5ccnn5C)cc4)C3)ccc2C)C1 (stereo in doubt)", 102],
  ["CN(c1ccc(C(=O)N2CCC(c3ccc(-c4cnn(C)c4)cc3)CC2)cc1NC(=O)C1CC1)C1CC1", 88]
]}

1. Cc1ccc(C(=O)N2CCC(c3ccc(-c4cnn(C5CCOCC5)c4)cc3)CC2)cc1NC(=O)c1ccc(NC(C)C)nc1
2. Cc1ccc(C(=O)N2CCC(c3ccc(-c4cnn(C)c4)cc3)CC2)cc1NC(=O)c1nccn1C
Identify the entry with the smaller inhibition at 10 µM: 1 or 2 . Please indicate the selected item by its label.
2
